Each entry below carries its recorded EC50.
MEASURED_TARGET: UniProt:P10520
Sequence (P10520 whole entry): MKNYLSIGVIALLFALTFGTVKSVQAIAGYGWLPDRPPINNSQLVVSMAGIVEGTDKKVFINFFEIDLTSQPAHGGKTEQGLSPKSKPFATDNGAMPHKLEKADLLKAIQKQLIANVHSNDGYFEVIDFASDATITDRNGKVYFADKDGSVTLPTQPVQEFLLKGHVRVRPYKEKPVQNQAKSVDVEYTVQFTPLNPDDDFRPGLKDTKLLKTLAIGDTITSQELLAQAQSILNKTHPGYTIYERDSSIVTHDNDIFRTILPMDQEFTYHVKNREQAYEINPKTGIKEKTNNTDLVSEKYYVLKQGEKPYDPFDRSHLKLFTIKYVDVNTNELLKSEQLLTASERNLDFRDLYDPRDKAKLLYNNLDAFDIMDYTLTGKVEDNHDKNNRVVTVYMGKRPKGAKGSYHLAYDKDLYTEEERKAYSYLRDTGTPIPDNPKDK
TEST_SUMMARY: S. pyogenes streptokinase expression inhibitors, potency, dose response, plasminogen activation absorbance, OD405 (AID 1914);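 also: secreted streptokinase activity via plasminogen activation per viability signal from cell pellet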
Assay type: functional, Streptococcus pyogenes M1 GAS
The source made the active and inactive calls.

COMPOUND	EC50
C/C(=N\NC(=O)c1ccccc1N)c1ccc(NC(=O)Cc2ccccc2)cc1	> 150 µM (not active)
CC(C)CN(Cc1cc(=O)oc2cc(-c3ccccc3)c(O)cc12)CC(C)C	2.43 µM (active)
CCN1CCN(C(CNS(=O)(=O)c2ccc(C)cc2)c2cccnc2)CC1 (configuration not stated)	> 150 µM (not active)
COc1ccc(-c2cc(-c3ccc(Cl)cc3)[nH]n2)c(O)c1	> 150 µM (not active)
CC(Oc1cccc(Cl)c1)C(=O)Nc1ccccc1N1CCCCC1 (configuration not stated)	13.5 µM (active)
CC(C)=CCCC1(C)C=Cc2c(c(C)cc3c2[nH]c2cc(O)ccc23)O1 (configuration not stated)	> 150 µM (not active)
O=C(Nc1ccc(Cl)c(Cl)c1)Nc1ccon1	> 150 µM (not active)
Cc1nc(N2CCN(Cc3ccc4c(c3)OCO4)CC2)c2cc(-c3ccccc3)sc2n1	> 150 µM (not active)
O=C(Nc1nccs1)c1sc2ccccc2c1Cl	> 150 µM (not active)
O=C(CCl)c1ccc(Cc2ncc(C(F)(F)F)cc2Cl)s1	3.38 µM (active)
COc1ccccc1NS(=O)(=O)c1cc(NC(=S)NCC2CCCO2)ccc1C (configuration not stated)	> 150 µM (not active)
O=C(Nc1ccc(Br)c(C(F)(F)F)c1)c1ccc(C(F)(F)F)cc1	> 150 µM (not active)
N=C(N)c1ccc(/C=C/c2ccc(C(=N)N)cc2O)cc1	20 µM (active)
CC(NS(=O)(=O)OCC(Cl)(Cl)Cl)c1ccc(C(C)(C)C)cc1 (configuration not stated)	4.06 µM (active)
O=C(NC12CC3CC(CC(C3)C1)C2)c1ccc(-c2ccc(Br)cc2)o1	35.3 µM (active)
CCOc1cc(/C=N/Nc2cccc(C(=O)O)c2)ccc1OC(=O)c1ccccc1	> 150 µM (not active)
O=C(NNC(=O)c1ccccc1OCc1ccccc1Cl)c1csc(N2CCOCC2)n1	> 150 µM (not active)
CC1CC(=O)c2c(cc3c(-c4c(O)cc(O)c5c(O)c6c(cc45)OC(C)CC6=O)c(O)cc(O)c3c2O)O1 (configuration not stated) [CEPHALOCHROMIN]	> 150 µM (not active)
O=C1C(Nc2ccc(O)cc2)=C/C(=N/S(=O)(=O)c2cccs2)c2ccccc21	> 150 µM (not active)
COc1ccc(-n2c(=S)[nH]c3cc(C(=O)Nc4ccc(C)c(F)c4)ccc3c2=O)c(OC)c1	> 150 µM (not active)
CCc1nnc(NS(=O)(=O)c2ccc(NC(=S)NC(=O)/C=C/c3ccc(C(C)C)cc3)cc2)s1	4.44 µM (active)
CC(C)(C)C1CCC2(CC1)C(C#N)=C(SCC(=O)Nc1ccccc1)NC(=O)C2C#N (configuration not stated)	11.5 µM (active)

* * *

MEASURED_TARGET: Aminopeptidase N (Plasmodium falciparum FcB1/Columbia)
Sequence (O96935 whole entry): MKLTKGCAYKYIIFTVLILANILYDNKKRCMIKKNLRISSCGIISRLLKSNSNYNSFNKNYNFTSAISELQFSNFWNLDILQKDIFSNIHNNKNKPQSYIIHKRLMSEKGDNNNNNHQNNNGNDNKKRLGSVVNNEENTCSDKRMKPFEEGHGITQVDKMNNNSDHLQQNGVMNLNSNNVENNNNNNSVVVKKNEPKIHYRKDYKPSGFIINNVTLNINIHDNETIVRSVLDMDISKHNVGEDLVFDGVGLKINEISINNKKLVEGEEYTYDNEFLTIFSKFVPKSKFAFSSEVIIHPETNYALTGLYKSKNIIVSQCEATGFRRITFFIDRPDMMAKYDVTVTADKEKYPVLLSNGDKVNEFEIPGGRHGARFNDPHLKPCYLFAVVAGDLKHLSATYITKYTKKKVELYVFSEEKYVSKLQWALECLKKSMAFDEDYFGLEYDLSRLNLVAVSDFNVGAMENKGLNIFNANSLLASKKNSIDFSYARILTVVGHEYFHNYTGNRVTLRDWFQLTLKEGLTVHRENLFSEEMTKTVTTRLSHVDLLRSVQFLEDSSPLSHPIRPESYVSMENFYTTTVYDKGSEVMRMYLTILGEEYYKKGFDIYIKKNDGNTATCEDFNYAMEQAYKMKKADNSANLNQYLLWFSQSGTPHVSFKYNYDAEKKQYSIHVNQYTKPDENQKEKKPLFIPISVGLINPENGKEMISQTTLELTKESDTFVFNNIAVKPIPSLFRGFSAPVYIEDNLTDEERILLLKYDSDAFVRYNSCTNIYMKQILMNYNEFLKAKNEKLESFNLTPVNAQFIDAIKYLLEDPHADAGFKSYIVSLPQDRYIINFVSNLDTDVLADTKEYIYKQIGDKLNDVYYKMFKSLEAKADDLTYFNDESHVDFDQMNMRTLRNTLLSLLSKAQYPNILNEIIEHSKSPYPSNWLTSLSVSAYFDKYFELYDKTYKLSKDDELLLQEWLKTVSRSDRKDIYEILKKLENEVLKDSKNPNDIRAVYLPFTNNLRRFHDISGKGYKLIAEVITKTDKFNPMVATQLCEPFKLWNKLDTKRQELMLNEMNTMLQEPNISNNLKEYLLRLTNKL
TEST_SUMMARY: P. falciparum M1AAP inhibitors, biochemical, fluorogenic H-Leu-NHMec substrate, 1536-well (AID 1445)
Parameters: species or system Plasmodium falciparum 3D7, 3D7
Active and inactive are the calls of the source.
# IC50 per entry

COMPOUND	MEASURED_TARGET	IC50
O=C(CN1CCC(NC(=O)c2cccc(F)c2)CC1)NCc1ccccc1F	Aminopeptidase N (Plasmodium falciparum FcB1/Columbia)	23.2 µM (active)
O=C(Cn1nc2ccccc2n1)N/N=C/c1cc(Cl)cc([N+](=O)[O-])c1O	Aminopeptidase N (Plasmodium falciparum FcB1/Columbia)	45.2 µM (active)
COc1cc(/C=C/C(=O)O)cc(S(=O)(=O)NCc2ccc3c(c2)OCO3)c1OC	Aminopeptidase N (Plasmodium falciparum FcB1/Columbia)	81.9 µM (active)
CCCn1c(-c2ccc[nH]c2=O)nc2cc(C)c(C)cc21	Aminopeptidase N (Plasmodium falciparum FcB1/Columbia)	23.8 µM (active)
O=C(O)c1ccc(/C=C/c2ccc3cccc(O)c3n2)cc1	Aminopeptidase N (Plasmodium falciparum FcB1/Columbia)	13 µM (active)
Cc1cccc(C2C3=C(O)c4ccccc4C3=Nc3nn(-c4ccccc4)c(O)c32)c1 (stereo not given)	Aminopeptidase N (Plasmodium falciparum FcB1/Columbia)	38.3 µM (active)
CN(C)CCCNc1oc(/C=C/c2ccccc2)nc1C#N	Aminopeptidase N (Plasmodium falciparum FcB1/Columbia)	45.3 µM (active)
CSc1ncc(Cl)c(C(=O)C(C#N)c2nc3c(C)cc(C)cc3c(=O)[nH]2)n1 (stereo not given)	Aminopeptidase N (Plasmodium falciparum FcB1/Columbia)	84.5 µM (active)
COc1cccc(/C=C(/C#N)c2ccc(F)cc2)c1OCc1cccc(C(=O)O)c1	Aminopeptidase N (Plasmodium falciparum FcB1/Columbia)	43.6 µM (active)
CC1CC(=O)c2c(cc3c(-c4c(O)cc(O)c5c(O)c6c(cc45)OC(C)CC6=O)c(O)cc(O)c3c2O)O1 (stereo not given)	Aminopeptidase N (Plasmodium falciparum FcB1/Columbia)	64.9 µM (active)

* * *

Reported AC50 is given for each of the following molecules.
TEST_SUMMARY: Shn3 3'UTR reporter inhibitors, dose response, cell-based, Clone20 osteoblasts, firefly luciferase, cherry-picked (AID 624132);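 also: firefly luciferase luminescence from reporter carrying the Shn3 3'UTR in osteoblasts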
Assay type: functional
Calls of active or inactive are those of the source.
ASSAY_ENDPOINT: AC50

MOLECULE	OBS_VALUE
O=C(CN(C(=O)c1ccccc1Cl)C1CCCCC1)Nc1ccc(Cl)c([N+](=O)[O-])c1	5.1 µM (active)
Cc1cc(C)c(C(N)=O)c(SCC(=O)c2cc(C)n(-c3cc(C)on3)c2C)n1	0.942 µM (active)
Nc1nnc(SCC(=O)Nc2ccc(N3CCOCC3)cc2)s1	16.8 µM (active)
COc1ccc2c(c1OC)C(=O)OC2Nc1nc(-c2ccccc2)cs1 (configuration not stated)	4.7 µM (active)
O=C(c1ccccc1)c1ccccc1N1C(=O)C=CC1=O	16.7 µM (active)
CC1(c2ccc3ccccc3c2)NC(=O)N(CC(=O)N2CCN(Cc3ccc(C#N)cc3)CC2)C1=O (configuration not stated)	0.416 µM (active)
O=S(=O)(Nc1cc(Sc2nc[nH]n2)c(O)c2ccccc12)c1ccccc1	7.55 µM (active)

* * *

MEASURED_TARGET: UniProtKB Q9HC16
Sequence (Q9HC16 whole entry): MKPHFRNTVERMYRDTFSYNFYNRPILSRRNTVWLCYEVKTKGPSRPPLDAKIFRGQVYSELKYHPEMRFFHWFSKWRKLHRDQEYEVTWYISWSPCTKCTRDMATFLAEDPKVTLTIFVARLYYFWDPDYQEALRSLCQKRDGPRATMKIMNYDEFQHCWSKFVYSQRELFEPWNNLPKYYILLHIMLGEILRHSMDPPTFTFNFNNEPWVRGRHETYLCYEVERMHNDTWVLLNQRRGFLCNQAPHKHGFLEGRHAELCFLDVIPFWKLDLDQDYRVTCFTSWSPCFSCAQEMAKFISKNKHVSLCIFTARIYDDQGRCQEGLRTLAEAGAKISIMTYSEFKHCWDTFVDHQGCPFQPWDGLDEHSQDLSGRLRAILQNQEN
TEST_SUMMARY: Dose Response confirmation of small molecule APOBEC3G DNA Deaminase Inhibitors via a fluorescence-based single-stranded DNA deaminase assay. [Related pubchem assays (depositor defined):AID493012, AID493028]
Format: functional
Active and inactive are the calls of the source.
ASSAY_ENDPOINT: IC50

MOLECULE	OBS_VALUE
O=S(=O)(Nc1cc(Sc2nc[nH]n2)c(O)c2ccccc12)c1ccccc1	3.16 µM (active)
C=C(C)Cn1c(-c2cccs2)n[nH]c1=S	7.53 µM (active)
CCc1nnc(S)n1/N=C/c1c(O)ccc2ccccc12	4 µM (active)
CCOc1ccccc1N1C(=O)CC(Sc2n[nH]c(-c3ccccc3)n2)C1=O (centres undefined)	9.92 µM (active)

* * *

MEASURED_TARGET: Mitogen-activated protein kinase 10 (Homo sapiens)
Sequence (P53779 whole entry): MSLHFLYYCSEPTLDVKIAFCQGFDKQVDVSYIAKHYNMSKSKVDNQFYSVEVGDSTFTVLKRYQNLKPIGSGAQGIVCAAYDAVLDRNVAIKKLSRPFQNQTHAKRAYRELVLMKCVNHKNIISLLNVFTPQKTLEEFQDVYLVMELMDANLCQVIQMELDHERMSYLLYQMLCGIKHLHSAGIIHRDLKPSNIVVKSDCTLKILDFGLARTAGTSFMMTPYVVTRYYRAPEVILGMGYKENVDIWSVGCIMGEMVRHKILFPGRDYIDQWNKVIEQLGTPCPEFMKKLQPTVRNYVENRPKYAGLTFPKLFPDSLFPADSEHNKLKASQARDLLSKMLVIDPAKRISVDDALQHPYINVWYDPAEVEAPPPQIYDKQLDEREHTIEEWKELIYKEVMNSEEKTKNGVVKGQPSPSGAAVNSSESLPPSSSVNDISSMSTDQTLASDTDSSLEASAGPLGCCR
TEST_SUMMARY: Dose response biochemical screening assay for inhibitors of c-Jun N-Terminal Kinase 3 (JNK3). [Related pubchem assays: 746 ]
ASSAY_ENDPOINT: IC50

COMPOUND	OBS_VALUE
CCOc1ccc(NC(=O)CN2C(=O)C3CCCN3C2=O)cc1 (centres undefined)	> 93.1 µM (not active)
O=S(=O)(c1ccc2c(c1)OCCO2)N1CCC(n2cnc3cc(F)ccc32)CC1	49.4 µM (not active)
COc1ccc(Cl)cc1-c1nnc(S)o1	16.2 µM (not active)
O=C1c2ccccc2-c2onc3ccc(NCc4ccco4)c1c23	24 µM (not active)

* * *

Each entry below carries its recorded EC50.
TEST_SUMMARY: cytotoxicity toward NIH3T3 fibroblasts, dose response, counter-screen, cell-based, ATP luminescence, mouse fibroblasts (AID 2010);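 also: cells exposed to compound for about 90 hours before reading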
Assay type: functional
Activity calls are given as the source filed them.

COMPOUND	EC50
CCCC(CCC)C(=O)OC[N+](C)(C)CCOC(=O)C(O)(c1ccccc1)C1CCCC1 (stereo unspecified)	> 60 µM (not active)
CCN(CC)CCCNC(=O)c1ccc(OCC(=O)Nc2ccccc2C(F)(F)F)c(OC)c1	> 30 µM (not active)
OCCC1CN(Cc2cc3c(cc2Cl)OCO3)CCN1Cc1ccccc1 (stereo unspecified)	> 60 µM (not active)
Cc1ccc2nc(-c3ccncc3)c(NC3CCCC3)n2c1	> 60 µM (not active)
CCOC(=O)C1CCCN(C(=O)c2cccc(S(=O)(=O)N(Cc3ccccc3)c3ccccc3OC)c2)C1 (stereo unspecified)	35.2 µM (active)
OC(CNc1ccccc1)COc1ccc(OCC(O)CNc2ccccc2)cc1 (stereo unspecified)	> 60 µM (not active)

Where do the numbers come from? From ChEMBL document CHEMBL1201862.
